Catalogue of IC50 values
# target-of-assay: Kras and SOS1 (biotin-tagged human Kras loaded with GDP, His-tagged human SOS1) (Homo sapiens, UniProt P01116, G12D)
# Construct: made in house; host or cells: E. coli (stated for Kras only)
# Sequence (P01116 1-188 isoform P01116-2 G12D): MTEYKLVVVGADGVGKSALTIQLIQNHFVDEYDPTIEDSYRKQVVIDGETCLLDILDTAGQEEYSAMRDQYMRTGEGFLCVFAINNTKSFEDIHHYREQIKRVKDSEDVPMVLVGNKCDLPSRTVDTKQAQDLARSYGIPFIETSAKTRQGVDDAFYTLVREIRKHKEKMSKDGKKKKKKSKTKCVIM
# measurement-description: Protein-protein interaction inhibition between Kras and SOS1 (KrasGl2D-SOS PPI) using AlphaScreen
# Type: binding
# setup-conditions: AlphaScreen; biotin-tagged human Kras loaded with GDP, His-tagged human SOS1; read-out: KRAS G12D-SOS PPI IC50
Positions of bridges follow the written chain, without caps; N, C: chain ends. Non-standard residues stand in square brackets, D forms with d. Residues, ends and D or L forms follow the SMILES beside them. hPhe(3-Cl-4-CF3) = N[C@@H](CCc1ccc(C(F)(F)F)c(Cl)c1)C(=O)O; NMePhe(3-Br) = CN[C@@H](Cc1cccc(Br)c1)C(=O)O; NMePhe(4-Me) = CN[C@@H](Cc1ccc(C)cc1)C(=O)O; NMeGly(cPent) = CN[C@H](C(=O)O)C1CCCC1; NEtLeu = CCN[C@@H](CC(C)C)C(=O)O; NMeI = CC[C@H](C)[C@H](NC)C(=O)O; NMeD = CN[C@@H](CC(=O)O)C(=O)O; NMeA = CN[C@@H](C)C(=O)O; Ac5c = NC1(C(=O)O)CCCC1; Aze = O=C(O)[C@@H]1CCN1; Sar = CNCC(=O)O

{"molecule": "CC[C@H](C)[C@@H]1NC(=O)[C@H](C)N(C)C(=O)C[C@@H](C(=O)N(C)C)N(C)C(=O)[C@H]([C@@H](C)CC)N(C)C(=O)C2(CCCC2)NC(=O)[C@H](Cc2cccc(Br)c2)N(C)C(=O)[C@H](CCc2ccc(C(F)(F)F)c(Cl)c2)NC(=O)CN(C)C(=O)[C@H](Cc2ccc(C)cc2)N(C)C(=O)[C@@H]2CCN2C(=O)[C@H](C)N(C)C1=O [Compound 2000] ([NMeA]I[NMeA][Aze][NMePhe(4-Me)][Sar][hPhe(3-Cl-4-CF3)][NMePhe(3-Br)][Ac5c][NMeI][NMeD]-NMe2; lactam N-11)", "IC50 [nM]": 15}
{"molecule": "CC[C@H](C)[C@@H]1NC(=O)[C@H](CC(C)C)N(CC)C(=O)C[C@@H](C(=O)N(C)C)N(C)C(=O)[C@H](C2CCCC2)N(C)C(=O)C2(CCCC2)NC(=O)[C@@H]2CCCN2C(=O)[C@H](CCc2ccc(C(F)(F)F)c(Cl)c2)NC(=O)CN(C)C(=O)[C@H](Cc2ccc(C)cc2)N(C)C(=O)[C@@H]2CCN2C(=O)[C@H](C)NC1=O [Compound 1282] ([NEtLeu]IA[Aze][NMePhe(4-Me)][Sar][hPhe(3-Cl-4-CF3)]P[Ac5c][NMeGly(cPent)][NMeD]-NMe2; lactam N-11)", "IC50 [nM]": 0.81}

---

# target-of-assay: Kras and SOS1 (biotin-tagged human Kras loaded with GDP, His-tagged human SOS1) (Homo sapiens, UniProt P01116, G12D)
# Construct: made in house; host or cells: E. coli (stated for Kras only)
# measurement-description: Protein-protein interaction inhibition between Kras and SOS1 (KrasGl2D-SOS PPI) using AlphaScreen
# Type: binding
# setup-conditions: AlphaScreen; biotin-tagged human Kras loaded with GDP, His-tagged human SOS1; read-out: KRAS G12D-SOS PPI IC50
pIC50: −log10 of the molar value. Positions of bridges follow the written chain, without caps; N, C: chain ends. Non-standard residues stand in square brackets, D forms with d. Residues, ends and D or L forms follow the SMILES beside them. *: point of attachment. hPhe(3-Cl-4-CF3) = N[C@@H](CCc1ccc(C(F)(F)F)c(Cl)c1)C(=O)O; NMePhe(4-Me) = CN[C@@H](Cc1ccc(C)cc1)C(=O)O; NMeGly(cPent) = CN[C@H](C(=O)O)C1CCCC1; NMeCha = CN[C@@H](CC1CCCCC1)C(=O)O; NMehLeu = CN[C@@H](CCC(C)C)C(=O)O; NMeD = CN[C@@H](CC(=O)O)C(=O)O; NMeL = CN[C@@H](CC(C)C)C(=O)O; NMeV = CN[C@H](C(=O)O)C(C)C; Piperidide = C1CCN(*)CC1; Ac5c = NC1(C(=O)O)CCCC1; Aze = O=C(O)[C@@H]1CCN1; Sar = CNCC(=O)O

{"compound": "CC[C@H](C)[C@@H]1NC(=O)[C@H](CC(C)C)N(C)C(=O)C[C@@H](C(=O)N2CCCCC2)N(C)C(=O)[C@H](C(C)C)N(C)C(=O)C2(CCCC2)NC(=O)[C@@H]2CCCN2C(=O)[C@H](CCc2ccc(C(F)(F)F)c(Cl)c2)NC(=O)CN(C)C(=O)[C@H](CC2CCCCC2)N(C)C(=O)[C@@H]2CCN2C(=O)[C@H](CCC(C)C)N(C)C1=O [Compound 1577] ([NMeL]I[NMehLeu][Aze][NMeCha][Sar][hPhe(3-Cl-4-CF3)]P[Ac5c][NMeV][NMeD]-Piperidide; lactam N-11)", "pIC50": 7.30}
{"compound": "CC[C@H](C)[C@@H]1NC(=O)[C@H](CC(C)C)N(C)C(=O)C[C@@H](C(=O)N2CCCCC2)N(C)C(=O)[C@H](C2CCCC2)N(C)C(=O)C2(CCCC2)NC(=O)[C@@H]2CCCN2C(=O)[C@H](CCc2ccc(C(F)(F)F)c(Cl)c2)NC(=O)CN(C)C(=O)[C@H](Cc2ccc(C)cc2)N(C)C(=O)CN(C)C(=O)CN(C)C1=O [Compound 1850] ([NMeL]I[Sar][Sar][NMePhe(4-Me)][Sar][hPhe(3-Cl-4-CF3)]P[Ac5c][NMeGly(cPent)][NMeD]-Piperidide; lactam N-11)", "pIC50": 9.22}
